- Experiment notes: Evaluation of conversion rate to active form in BALB/c mouse plasma (Experimental Example 3)
- Format: in vitro ADME
- Conditions: BALB/c, mouse, 0 min, 0.2 μmol/L
- Description: For Example 1, Example 2, Example 3, Example 4, Example 5, Example 6, Comparative Example 3, Comparative Example 4, Comparative Example 6, Comparative Example 7, Comparative Example 8, Comparative Example 9, Comparative Example 10 and Comparative Example 12, the attrition rate of the test compound and the conversion rate of the test compound to Alvocidib in human plasma and BALB/c mouse plasma were calculated by the following method. […]
Quantity kind: Residual rate (%) of test compound

INSERT INTO assay_data (molecule, units_label, result_number) VALUES
  ('CN1CC[C@H](c2c(O)cc(O)c3c(=O)cc(-c4ccccc4Cl)oc23)[C@H](OC(=O)c2ccccc2F)C1', '%', 100),
  ('C[C@H](N)C(=O)O[C@@H]1CN(C)CC[C@@H]1c1c(O)cc(O)c2c(=O)cc(-c3ccccc3Cl)oc12 [Comparative Example 7, reference compound]', '%', 100),
  ('CN1CC[C@H](c2c(O)cc(O)c3c(=O)cc(-c4ccccc4Cl)oc23)[C@H](OC(=O)[C@@H](N)CO)C1 [Comparative Example 9, reference compound]', '%', 100);

* * *

- Experiment notes: Evaluation of conversion rate to active form in buffer solution (Experimental Example 1)
- Assay type: physicochemical
- Conditions: pH6.0, 0.5 hr, 37° C., 25 umol/L in buffer solution
Listing of recorded Residual rate by entry.
Give a bare numeral; the unit % is implied.

Examples from the recorded data:
INSERT INTO assay_data (molecule, quantity_kind, result_number) VALUES
  ('CCN(C[C@H]1CCCCN1)C(=O)Oc1cc(O)c2c(=O)cc(-c3ccccc3Cl)oc2c1[C@H]1CCN(C)C[C@H]1O [Example 2]', 'Residual rate', 93.0),
  ('CCCN(CC1CCCCN1)C(=O)Oc1cc(O)c2c(=O)cc(-c3ccccc3Cl)oc2c1[C@H]1CCN(C)C[C@H]1O (stereo partly drawn) [Example 9]', 'Residual rate', 92.9);

Please examine the following record next.
input: // query Residual rate value for entry CC(C)N(CC1CCCCN1)C(=O)Oc1cc(O)c2c(=O)cc(-c3ccccc3Cl)oc2c1[C@H]1CCN(C)C[C@H]1O (stereo partly drawn) [Example 10]
output: 88.2

* * *

Listing of recorded Residual rate by entry.
- Experiment notes: Evaluation of conversion rate to active form in buffer solution (Experimental Example 1)
- Format: physicochemical
- Conditions: pH7.0, 0 hr, 37° C., 25 umol/L in buffer solution
Counter-ions that a name gives are not always drawn.
Give a bare numeral; the unit % is implied.

INSERT INTO measurements (molecule, quantity_kind, result_number) VALUES
  ('CN1CC[C@H](c2c(OC(=O)N(Cc3ccccc3)CC3CCCCN3)cc(O)c3c(=O)cc(-c4ccccc4Cl)oc23)[C@H](O)C1 (stereo partly drawn)', 'Residual rate', 94.1),
  ('CN1CC[C@H](c2c(OC(=O)N(C)C[C@@H]3CCCCN3)cc(O)c3c(=O)cc(-c4ccccc4Cl)oc23)[C@H](O)C1', 'Residual rate', 99.4);

Please examine the following record next.
input: // query Residual rate value for entry CCN(CC1CCCCN1)C(=O)Oc1cc(O)c2c(=O)cc(-c3ccccc3Cl)oc2c1[C@H]1CCN(C)C[C@H]1O (stereo partly drawn) [Example 7, dihydrochloride]
output: 89.1

* * *

Listing of recorded Production rate of Alvocidib by entry.
- Experiment notes: Evaluation of conversion rate to active form in buffer solution (Experimental Example 1)
- Assay type: physicochemical
- Conditions: pH7.4, 2 hr, 37° C., 25 umol/L in buffer solution
Structures can show the parent of a compound that is named as a salt.
Give a bare numeral; the unit % is implied.

INSERT INTO measurements (compound, result_number) VALUES
  ('CCN(C[C@H]1CCCCN1)C(=O)Oc1cc(O)c2c(=O)cc(-c3ccccc3Cl)oc2c1[C@H]1CCN(C)C[C@H]1O [Example 2]', 66.0),
  ('CN1CC[C@H](c2c(OC(=O)N(CCC(F)(F)F)CC3CCCCN3)cc(O)c3c(=O)cc(-c4ccccc4Cl)oc23)[C@H](O)C1 (stereo partly shown) [Example 13]', 68.6),
  ('CN1CC[C@H](c2c(OC(=O)N(CCCC(F)(F)F)CC3CCCCN3)cc(O)c3c(=O)cc(-c4ccccc4Cl)oc23)[C@H](O)C1 (stereo partly shown) [Example 14]', 75.6),
  ('CCN(CC1CCCCN1)C(=O)Oc1cc(O)c2c(=O)cc(-c3ccccc3Cl)oc2c1[C@H]1CCN(C)C[C@H]1O (stereo partly shown) [Example 7, dihydrochloride]', 69.0),
  ('CN1CC[C@H](c2c(OC(=O)N(C)CC3CCCCN3)cc(O)c3c(=O)cc(-c4ccccc4Cl)oc23)[C@H](O)C1 (stereo partly shown) [Example 8]', 58.2),
  ('COCCN(CC1CCCCN1)C(=O)Oc1cc(O)c2c(=O)cc(-c3ccccc3Cl)oc2c1[C@H]1CCN(C)C[C@H]1O (stereo partly shown) [Example 12]', 67.3);

Please examine the following record next.
input: // query Production rate of Alvocidib value for entry CC(C)N(CC1CCCCN1)C(=O)Oc1cc(O)c2c(=O)cc(-c3ccccc3Cl)oc2c1[C@H]1CCN(C)C[C@H]1O (stereo partly shown) [Example 10]
output: 87.2

* * *

- Experiment notes: Evaluation of conversion rate to active form in buffer solution (Experimental Example 1)
- Format: physicochemical
- Conditions: pH7.0, 3 hr, 37° C., 25 umol/L in buffer solution
Quantity kind: Production rate of Alvocidib (%)
Give a bare numeral; the unit % is implied.

Examples from the recorded data:
INSERT INTO results (compound, quantity_kind, units_label, result_number) VALUES
  ('CN1CC[C@H](c2c(OC(=O)N(CCC(F)(F)F)CC3CCCCN3)cc(O)c3c(=O)cc(-c4ccccc4Cl)oc23)[C@H](O)C1 (stereo partly drawn)', 'Production rate of Alvocidib', '%', 69.9),
  ('CN1CC[C@H](c2c(OC(=O)N(Cc3ccccc3)CC3CCCCN3)cc(O)c3c(=O)cc(-c4ccccc4Cl)oc23)[C@H](O)C1 (stereo partly drawn)', 'Production rate of Alvocidib', '%', 69.9);

Please examine the following record next.
input: // query Production rate of Alvocidib value for entry "CCCN(C[C@H]1CCCCN1)C(=O)Oc1cc(O)c2c(=O)cc(-c3ccccc3Cl)oc2c1[C@H]1CCN(C)C[C@H]1O"
output: 69.8

* * *

Listing of recorded Residual rate by entry.
- Experiment notes: Evaluation of conversion rate to active form in buffer solution (Experimental Example 1)
- Type: physicochemical
- Conditions: pH6.0, 0 hr, 37° C., 25 umol/L in buffer solution
Give a bare numeral; the unit % is implied.

Examples from the recorded data:
INSERT INTO measurements (compound, result_number) VALUES
  ('CCN(C[C@H]1CCCCN1)C(=O)Oc1cc(O)c2c(=O)cc(-c3ccccc3Cl)oc2c1[C@H]1CCN(C)C[C@H]1O', 95.5),
  ('CN1CC[C@H](c2c(OC(=O)N(Cc3ccccc3)CC3CCCCN3)cc(O)c3c(=O)cc(-c4ccccc4Cl)oc23)[C@H](O)C1 (some centres unmarked)', 95.5),
  ('CCCN(C[C@H]1CCCCN1)C(=O)Oc1cc(O)c2c(=O)cc(-c3ccccc3Cl)oc2c1[C@H]1CCN(C)C[C@H]1O', 99.4),
  ('CN1CC[C@H](c2c(OC(=O)N(C)CC3CCCCN3)cc(O)c3c(=O)cc(-c4ccccc4Cl)oc23)[C@H](O)C1 (some centres unmarked)', 95.7),
  ('CN1CC[C@H](c2c(OC(=O)N(CCCC(F)(F)F)CC3CCCCN3)cc(O)c3c(=O)cc(-c4ccccc4Cl)oc23)[C@H](O)C1 (some centres unmarked)', 55.8);

input: // query Residual rate value for entry COCCN(CC1CCCCN1)C(=O)Oc1cc(O)c2c(=O)cc(-c3ccccc3Cl)oc2c1[C@H]1CCN(C)C[C@H]1O (some centres unmarked)
output: 80.8

input: // query Residual rate value for entry CCCN(CC1CCCCN1)C(=O)Oc1cc(O)c2c(=O)cc(-c3ccccc3Cl)oc2c1[C@H]1CCN(C)C[C@H]1O (some centres unmarked)
output: 96.2

input: // query Residual rate value for entry "CN1CC[C@H](c2c(OC(=O)N(C)C[C@@H]3CCCCN3)cc(O)c3c(=O)cc(-c4ccccc4Cl)oc23)[C@H](O)C1"
output: 99.7

* * *

- Experiment notes: Evaluation of conversion rate to active form in buffer solution (Experimental Example 1)
- Assay type: physicochemical
- Conditions: pH7.0, 1 hr, 37° C., 25 umol/L in buffer solution
Where a name gives a salt, the structure may show the parent alone.
Listing of recorded Production rate of Alvocidib by entry.
Give a bare numeral; the unit % is implied.

INSERT INTO assay_data (compound, result_number) VALUES
  ('CCN(CC1CCCCN1)C(=O)Oc1cc(O)c2c(=O)cc(-c3ccccc3Cl)oc2c1[C@H]1CCN(C)C[C@H]1O (stereo partly shown) [Example 7, dihydrochloride]', 38.0),
  ('CN1CC[C@H](c2c(OC(=O)N(C)C[C@H]3CCCCN3)cc(O)c3c(=O)cc(-c4ccccc4Cl)oc23)[C@H](O)C1 [Example 4]', 31.6),
  ('CN1CC[C@H](c2c(OC(=O)N(C)CC3CCCCN3)cc(O)c3c(=O)cc(-c4ccccc4Cl)oc23)[C@H](O)C1 (stereo partly shown) [Example 8]', 40.0);

Please examine the following record next.
input: // query Production rate of Alvocidib value for entry CCN(C[C@H]1CCCCN1)C(=O)Oc1cc(O)c2c(=O)cc(-c3ccccc3Cl)oc2c1[C@H]1CCN(C)C[C@H]1O [Example 2]
output: 38.0
